- assay.remarks: AUC (0 to infinity) in human at 5 mg/kg administered as single dose
- Type: ADME, organism-based
- Set-up: time infinity, dose 5 mg/kg
- test.conditions: plasma
measured.parameter: AUC(0-inf) (µM·h)
Respond numerically; units are µM·h and should not be typed.

Data request, read-out AUC(0-inf), for Nc1ccn(C[C@@H](CO)OCP(=O)(O)O)c(=O)n1.O.O
75

* * *

- assay.remarks: AUC in cynomolgus monkey with probenecid at 5 mg/kg five dose regimen for 13 days
- Assay type: ADME, organism-based, Macaca fascicularis
- Design: dose 5 mg/kg
- test.conditions: plasma
measured.parameter: AUC at 312 h (µM·h)
Number in µM·h, nothing else.

Bench note: what AUC at 312 h did Nc1ccn(C[C@@H](CO)OCP(=O)(O)O)c(=O)n1.O.O show?
514

Where do these numbers come from? They come from ChEMBL document CHEMBL1629567.
